The measurements presented in this section are drawn from ChEMBL document CHEMBL2321827.

Experiment: Stimulation of [3H]flunitrazepam binding to GABA type A receptor in mouse primary cortical neurons after 30 mins by liquid scintillation counting analysis
Assay type: cell-based
Settings: cerebral cortex neuron
pEC50: −log10 of the molar value.
Documented pEC50 across a set of compounds
observation.type: pEC50

In [3]: df
Out[3]:
                                   structure  limit_sign  reported_value
 0  C=C1C[C@]2(C)[C@@H](C(C)=O)CC[C@H]2[C@@H]2CC[C@H]3C[C@H](O)CC[C@]3(C)[C@@H]12           =            5.92
 1  CC(=O)[C@H]1CC[C@H]2[C@@H]3CC[C@@H]4C[C@H](O)CC[C@]4(C)C3=C(C)C[C@]12C           =            5.52
 2  C#C[C@@]1(O)CC[C@@]2(C)[C@H](CC[C@H]3[C@@H]4CC[C@H](C(C)=O)[C@@]4(C)C[C@@](O)(C#C)[C@@H]32)C1           =            4.12
 3  CC(=O)N[C@@H]1C[C@H]2[C@@H](CC[C@H]3C[C@H](O)CC[C@@]32C)[C@@H]2CC[C@H](C(C)=O)[C@@]12C           <            4.00
 4  C=C1C[C@]2(C)[C@@H](C(C)=O)CC[C@H]2[C@@H]2CC[C@@H]3C[C@H](O)CC[C@]3(C)[C@@H]12           =            4.43
 5  CC(=O)[C@H]1CC[C@H]2[C@@H]3CC[C@@H]4C[C@H](O)CC[C@]4(C)[C@H]3[C@@H](O)C[C@]12C           <            3.52
 6  CC(=O)[C@H]1CC[C@H]2[C@@H]3CC[C@H]4C[C@H](O)CC[C@]4(C)[C@H]3[C@@H]3O[C@@H]3[C@]12C           <            3.52
 7  CC(=O)[C@H]1CC[C@H]2[C@@H]3CC[C@H]4C[C@H](O)CC[C@]4(C)[C@H]3[C@@H](O)C[C@]12C           =            4.49
 8  CC(=O)[C@H]1CC[C@H]2[C@@H]3CC[C@H]4C[C@H](O)CC[C@]4(C)[C@H]3C[C@H](O)[C@]12C           =            4.34
 9  CC(=O)[C@H]1CC[C@H]2[C@@H]3CC[C@H]4C[C@H](O)CC[C@]4(C)[C@H]3C=C[C@]12C           =            5.13
10  CC(=O)[C@H]1CC[C@H]2[C@@H]3CC[C@H]4C[C@H](O)CC[C@]4(C)[C@H]3C[C@@H](N)[C@]12C           <            3.52
11  CC(=O)[C@H]1CC[C@H]2[C@@H]3CC[C@@H]4C[C@H](O)CC[C@]4(C)[C@H]3[C@@H](C)C[C@]12C           =            4.85
12  CC(=O)[C@H]1CC[C@H]2[C@@H]3CC[C@H]4C[C@H](O)CC[C@]4(C)[C@H]3C[C@@H](O)[C@]12C           =            3.76
